Tested on: NCI-H1568 (Lung Adenocarcinoma)
Experiment: combination Emax (second highest fraction inhibited in the dose matrix, 72 h); higher = more inhibition; extreme values may be limits of the assay

Molecule: C=CCn1c(=O)c2cnc(Nc3ccc(N4CCN(C)CC4)cc3)nc2n1-c1cccc(C(C)(C)O)n1 [AZD1775] + C[C@@H]1COCCN1C2=NC(=NC(=C2)C3(CC3)[S@](=N)(=O)C)C4=C5C=CNC5=NC=C4 [AZD6738] (first compound max 1 µM, partner max 10 µM)
combination Emax: 0.487
//
Molecule: CC1(C)CCC(CN2CCN(c3ccc(C(=O)NS(=O)(=O)c4ccc(NCC5CCOCC5)c([N+](=O)[O-])c4)c(Oc4cnc5[nH]ccc5c4)c3)CC2)=C(c2ccc(Cl)cc2)C1 [Venetoclax] + C=CCn1c(=O)c2cnc(Nc3ccc(N4CCN(C)CC4)cc3)nc2n1-c1cccc(C(C)(C)O)n1 [AZD1775] (first compound max 1 µM, partner max 1 µM)
combination Emax: 0.479
//
Molecule: C[C@@H](c1ccc2nccn2c1)n1nnc2ncc(-c3cnn(C)c3)nc21 [Savolitinib] + CN(CC[C@H](CSC1=CC=CC=C1)NC2=C(C=C(C=C2)S(=O)(=O)NC(=O)C3=CC=C(C=C3)N4CCC(CC4)[C@H](C5=CC=CC=C5C6=CC=C(C=C6)Cl)O)S(=O)(=O)C(F)(F)F)CCO [AZD4320] (first compound max 1 µM, 7x7, partner max 1 µM)
combination Emax: 0.256
//
Molecule: CC1(C)CCC(CN2CCN(c3ccc(C(=O)NS(=O)(=O)c4ccc(NCC5CCOCC5)c([N+](=O)[O-])c4)c(Oc4cnc5[nH]ccc5c4)c3)CC2)=C(c2ccc(Cl)cc2)C1 [Venetoclax] + C[C@@H]1COCCN1C2=NC(=NC(=C2)C3(CC3)[S@](=N)(=O)C)C4=C5C=CNC5=NC=C4 [AZD6738] (first compound max 1 µM, 7x7, partner max 10 µM)
combination Emax: 0.553
//
Molecule: CC1(C)CCC(CN2CCN(c3ccc(C(=O)NS(=O)(=O)c4ccc(NCC5CCOCC5)c([N+](=O)[O-])c4)c(Oc4cnc5[nH]ccc5c4)c3)CC2)=C(c2ccc(Cl)cc2)C1 [Venetoclax] + CN(C)CCCOc1ccc(-c2ccc3ncc4c(c3c2)n(C2CCOCC2)c(=O)n4C)cn1 [AZD0156] (first compound max 1 µM, 7x7, partner max 1 µM)
combination Emax: 0.319
//
Molecule: COc1cccc(OCCCN)c1-c1cc(Nc2cnc(C#N)cn2)n[nH]1 [Prexasertib] + CN(C)CCCOc1ccc(-c2ccc3ncc4c(c3c2)n(C2CCOCC2)c(=O)n4C)cn1 [AZD0156] (first compound max 1 µM, 7x7, partner max 1 µM)
combination Emax: 0.538

* * *

Tested on: GAMG (Glioblastoma)
Test: combination Emax (second highest fraction inhibited in the dose matrix, 72 h); higher = more inhibition; extreme values may be limits of the assay
Recorded combination Emax, one value per entry.
Experimental Readout: combination Emax

Molecule: C[C@@H](c1ccc2nccn2c1)n1nnc2ncc(-c3cnn(C)c3)nc21 [Savolitinib] + CC1(C)CCC(CN2CCN(c3ccc(C(=O)NS(=O)(=O)c4ccc(NCC5CCOCC5)c([N+](=O)[O-])c4)c(Oc4cnc5[nH]ccc5c4)c3)CC2)=C(c2ccc(Cl)cc2)C1 [Venetoclax] (first compound max 1 µM, 7x7, partner max 1 µM)
Experimental Result: 0.202
--
Molecule: CN(CCO)CC[C@H](CSc1ccccc1)Nc1ccc(S(=O)(=O)NC(=O)c2ccc(N3CCC([C@@H](O)c4ccccc4-c4ccc(Cl)cc4)CC3)cc2)cc1S(=O)(=O)C(F)(F)F [AZD4320] + Cn1cnc2c(F)c(Nc3ccc(Br)cc3Cl)c(C(=O)NOCCO)cc21 [Selumetinib] (first compound max 1 µM, 7x7, partner max 3 µM)
Experimental Result: 0.296
--
Molecule: COc1nnc2ccc(N3CCC(c4ccc(OCCN5CCN(C)C(=O)[C@H]5C)cc4)CC3)nn12 [AZD5153] + CC1(C)CCC(CN2CCN(c3ccc(C(=O)NS(=O)(=O)c4ccc(NCC5CCOCC5)c([N+](=O)[O-])c4)c(Oc4cnc5[nH]ccc5c4)c3)CC2)=C(c2ccc(Cl)cc2)C1 [Venetoclax] (first compound max 1 µM, 7x7, partner max 1 µM)
Experimental Result: 0.436
--
Molecule: CC(=O)c1c(C)c2cnc(Nc3ccc(N4CCNCC4)cn3)nc2n(C2CCCC2)c1=O [Palbociclib] + Cn1cnc2c(F)c(Nc3ccc(Br)cc3Cl)c(C(=O)NOCCO)cc21 [Selumetinib] (first compound max 10 µM, 7x7, partner max 10 µM)
Experimental Result: 0.314
--
Molecule: CN(CCO)CC[C@H](CSc1ccccc1)Nc1ccc(S(=O)(=O)NC(=O)c2ccc(N3CCC([C@@H](O)c4ccccc4-c4ccc(Cl)cc4)CC3)cc2)cc1S(=O)(=O)C(F)(F)F [AZD4320] + CC(=O)O[C@H]1C(=O)[C@@]2(C)[C@H]([C@H](OC(=O)c3ccccc3)[C@]3(O)C[C@H](OC(=O)[C@H](O)[C@@H](NC(=O)c4ccccc4)c4ccccc4)C(C)=C1C3(C)C)[C@]1(OC(C)=O)CO[C@@H]1C[C@@H]2O [Paclitaxel] (first compound max 1 µM, 7x7, partner max 3 µM)
Experimental Result: 1
